Tested on: NCI-H226
Test: NCI tumour cell line growth inhibition, 48 h
Activity calls are given as the source filed them. No stated cut-off is given here; in the data, active = GI50 up to about 1.1 µM and inactive = higher.
property.label: GI50

Sample records with GI50:
CCCCCCCC/C=C\CCCCCCCC(=O)NCCN(CCN)C(=O)CCCCCCC/C=C\CCCCCCCC: > 100 µM (inactive)
COC(=O)C1C(OC(=O)c2ccccc2)CC2CCC1N2C(N)=O (stereo not given): > 100 µM (inactive)
COc1ccc(-c2cc(C(=O)Nc3cccc(C(F)(F)F)c3)nc(S)n2)cc1: > 100 µM (inactive)
CC(=O)OCC(=O)O[C@@H]1[C@H]2[C@@H](OC(=O)c3ccccc3)[C@@H](C)C[C@]2(O)[C@H](OC(C)=O)[C@@]2(C)C(OC(C)=O)[C@]1(OC(C)=O)C[C@H]1C(=O)C(C)(C)C[C@@H]12 (stereo not given in full): > 50 µM (inactive)

Read the next record carefully.
Reported GI50 for COc1ccc2nc3cc(Cl)ccc3c(NCCC(=O)OCC(O)C(O)C(O[C@H](C)C(=O)NC(C)C(=O)NC(CCC(N)=O)C(=O)OCc3ccccc3)C(C=O)NC(C)=O)c2c1 (stereo not given in full) was 22.5 µM (inactive)
